The reported numbers originate from PubChem BioAssay (NCI).

- System: RXF 393 renal
- Test Name: NCI-60 one-dose screen, 48 h
- Experimental Conditions: 10 µM unless noted
Compounds without any hit were thinned out: in the full panel of roughly 83,000, 20% have a hit. The source made the active and inactive calls. How the source made its calls: active means growth percent below 10; inactive means the rest.
Possible outcomes: yes (1) = active, no (0) = inactive

>>> print(df.to_string())
                                   molecule      cat
0  O=C(Nc1nc(-c2ccc(Br)cc2)cs1)c1cc(-c2ccc(Br)cc2)nc2ccc(Cl)cc12   no (0)
1  COc1ccc2c(/C=C3/C(=O)NC(=S)NC3C)cc(=O)oc2c1 (stereo not given)   no (0)
2  N#Cc1ccc(-c2ccc3c(c2)NC(=O)/C3=C\c2ccc[nH]2)cc1   no (0)
3            CC(C)(C#N)N1CCN(c2ccccc2Cl)CC1   no (0)
4         Cc1ccc(S(=O)(=O)Nc2ccc(Cl)cc2)cc1   no (0)
5  CC(=O)OCC(=O)C1(O)C(C)CC2C3C=C(C)C4=Cc5c(cnn5-c5ccccc5)CC4(C)C3C(O)CC21C (stereo not given)  yes (1)
6                   CCOC(=O)N1CCN(CCCCl)CC1   no (0)
7  COc1cc(C(=O)/C=C/c2c(C)n([O-])c3ccc(Cl)cc3[n+]2=O)cc(OC)c1OC   no (0)
8  COc1cc2nc(-c3ccc(C(F)(F)F)cc3)cc(OCCN3CCCC3)c2cc1OC   no (0)
9  COc1ccc(/C=C\c2nc3ccccc3s2)cc1OP(=O)(O)O  yes (1)

---

- System: NCI-H522 lung
- Test Name: NCI-60 one-dose screen, 48 h
- Experimental Conditions: 10 µM unless noted
Compounds without any hit were thinned out: in the full panel of roughly 83,000, 20% have a hit. Activity calls are given as the source filed them. The calls were made as follows: active = growth percent below 10; inactive = the rest.
Possible outcomes: t for active, f for inactive

>>> df
                            compound_smiles  cat
0  CN1CCN(CCCOc2ccc3ncnc(Nc4ccc(Oc5cccc(C(F)(F)F)c5)c(Cl)c4)c3c2)CC1    t
1  COc1c(Cl)cc(Cl)c2ccc(C=C3C(=O)NC(=S)NC3=O)nc12    f
2  Cc1c2c(cc[n+]1Cc1ccccc1)c1ccc(OCC3CCCCC3)cc1n2CC1CCCCC1    t
3                CC(=O)CCSc1ccc(OC(C)=O)cc1    f
4  COc1ccc(/C=C2\COc3ccc(-c4ccccc4)cc3C2=O)cc1O    f
5  CCNC(=O)c1[nH]cc(-c2ccc(OC)cc2)c1-c1cc(OC)c(OC)c(OC)c1    f
6  CN(C)C(=O)c1cc2cnc(Nc3ccc(-c4csc5c(=O)cc(N6CCOCC6)oc45)cc3)nc2n1C1CCCC1    t
7      COc1ccc(-c2ncc(-c3ccccc3)[nH]2)cc1OC    f
8  N/C(=N\N=C\c1cc2ccccc2s1)N/N=C/c1cc2ccccc2s1    f
9  COc1ccc(C(=O)c2cc3c(N)c(C(=O)Nc4ccc(Br)cc4)sc3nc2C)cc1    f

---

- System: CAKI-1 renal
- Test Name: NCI-60 one-dose screen, 48 h (100 = growth as untreated, 0 = no growth, -100 = all killed)
- Experimental Conditions: 10 µM unless noted
- Description: Growth inhibition of the CAKI-1 human tumor cell line is measured as a screen for anti-cancer activity. Cells are grown in 96 well plates and exposed to the test compound for 48 hours. Compounds are tested at a single concentration, which is 10^-5 M for most compounds. The reported endpoint is percent growth (GI% or GIPRCNT), where numbers from 0 - 100% represent growth inhibition, and numbers from -100% - 0 represent cell death. For example, a value of 40 represents 60% growth inhibition. […]
This is part of a sample that, as a whole, favours compounds with a hit. Of some 83,000 tested, about 20% had one in any assay.
Entries and their growth
Measured Parameter: growth (%)

>>> df
                                   molecule  measured_parameter  observed_measurement
0  O=C1OC(=O)C2C1CC=CC2c1ccccc1 (stereo not given)              growth                   102
1  COc1ccc(Cn2nc(-c3ccccc3)c3c2CCc2cnoc2-3)cc1              growth                  66.3
2  CCOC(=O)c1ccc(Nc2ccnc(SCC(=O)c3ccc(C#N)cc3)n2)cc1              growth                  57.1
3  CCn1cc(C2NC(=O)c3ccccc3N2)c2cccc(C)c21 (stereo not given)              growth                  32.6
4  COc1ccc(-c2nc(SCCC(C)C)nc(N/N=C(/C)c3ccc(C)cc3)c2C#N)cc1              growth                  83.2
5  CC(=O)O[C@]1(C(C)=O)CC[C@H]2[C@@H]3C=C(Cl)C4=CC(=O)CC[C@]4(C)[C@H]3CC[C@@]21C              growth                  94.6
6  CCn1ccnc1C(=O)/C=C/c1ccc(CC(=O)Nc2ccc(F)cc2)cc1              growth                  34.1
7  Cn1c(COC(=O)NCCn2ccnc2)nc2c(N3CCOCC3)nc(-c3ccccc3)nc21              growth                 -94.2
8  CCOC(=O)C1=C(C)NC(C)=C(C(=O)OCC)C1c1cc(Br)c(O)c(OC)c1              growth                  30.1
9  CC(C)CCSc1nc(NNC(N)=O)c(C#N)c(-c2ccccc2)n1              growth                  93.7
